- target.entity: UniProt O00141
- Sequence (O00141 whole entry, species assumed): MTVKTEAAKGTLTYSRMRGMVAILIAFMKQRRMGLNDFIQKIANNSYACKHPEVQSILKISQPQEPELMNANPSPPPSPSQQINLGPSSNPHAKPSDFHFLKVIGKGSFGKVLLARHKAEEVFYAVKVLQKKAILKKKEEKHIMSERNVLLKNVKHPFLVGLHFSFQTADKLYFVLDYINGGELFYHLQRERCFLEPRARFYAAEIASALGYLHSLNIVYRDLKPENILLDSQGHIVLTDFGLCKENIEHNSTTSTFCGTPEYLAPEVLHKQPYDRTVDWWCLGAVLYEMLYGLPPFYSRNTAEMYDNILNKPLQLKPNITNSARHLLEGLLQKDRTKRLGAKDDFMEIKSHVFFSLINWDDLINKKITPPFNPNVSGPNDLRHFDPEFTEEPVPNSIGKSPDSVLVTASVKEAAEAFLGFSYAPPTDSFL
- measurement.notes: Cell assay: P-NDRG1 level in HeLa cells (western blot), intracellular SGK1 inhibition
- Type: cell-based
- Design: endogenous in cells; host or cells: HeLa
- reported.conditions: decrease of NDRG1 phosphorylation, 24 hrs incubation
pIC50: −log10 of the molar value.
# pIC50 values compiled below

smiles.input: CCc1c(C(=O)NNC(=O)Cc2cc(F)c(F)c(OC)c2)ccc(O)c1C
result: > 6.30
//
smiles.input: CCc1c(C(=O)NNC(=O)Cc2ccc(F)c(F)c2)ccc(O)c1C
result: < 6.30

Please look at the following compound next.
Lab book: pIC50 of CCc1c(C(=O)NNC(=O)Cc2cc(F)c(F)cc2OC)ccc(O)c1C noted as < 6.30

Data origin, for the record: patent US8492440B2
